# Assay procedure: Tanguay_ZF_120hpf_PE_legacy: (Legacy) Oregon State University Tanguay Lab 120 Hour Post-fertilization zebrafish Assay for Pericardial Edema (AID 2283640);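 on AC50: potency for increased incidence of pericardial edema versus DMSO baseline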
Inconclusive results are not listed. Active and inactive are the calls of the source. How the source made its calls: active means hit-call score of the fitted dose curve at least 0.9, where 1 is the maximum; inconclusive means response in the unintended direction; inactive means score below 0.9.
Value type: AC50

Consider the worked cases shown below.
| Molecule | AC50 |
| --- | --- |
| C1N2CN3CN1CN(C2)C3 | inactive |
| CCOC(=O)CC(CC(=O)OCC)(OC(C)=O)C(=O)OCC | inactive |
| CCn1nc(Cc2ccccc2)cc1C1CCN(C[C@H]2C[C@H](N(C)[C@@H](C(=O)O)C(C)C)C[C@@H]2c2cccc(F)c2)CC1 | inactive |
| Cc1ccc(N)cc1O | inactive |
| COc1ccc(/C=C/S(=O)(=O)NC(=O)c2ccc(C)cc2Cl)cc1 | inactive |
| CC(C)CC(C)(O)C#CC(C)(O)CC(C)C (centres undefined) | inactive |

// CCOC(=O)c1ccc(C2CCC(NC[C@H](O)COc3ccc(O)c(NS(C)(=O)=O)c3)CC2)cc1 (some centres undefined) : AC50 value = inactive

Lab note: measured AC50 of `COc1cccc(-c2ccc(/C=C\CN3CCCCCC3)cc2Cl)c1` was inactive

# molecule `Oc1ccc2c(c1)-c1ccccc1C2` ; its AC50 = 34.5 µM (active)

// field: AC50; key: `CC(C)=CCC/C(C)=C/CO` ; value = inactive

Entry `CC1=CC(=O)CC(C)(C)C1` ; AC50 = inactive

Per the records, this molecule ( O=C(O)CC(O)C(=O)O (centres undefined) ) has AC50 equal to inactive

So for `Cc1ccc(O)cc1` , the logged AC50 turned out to be inactive

The molecule identified as `CCCCCCc1ccc(O)cc1O` registered its AC50 at inactive

----------
# Read-out: Low-density lipoprotein receptor (LDLR), LDLR (gene 3949)
# Assay procedure: BSK_CASM3C_LDLR: BioMAP Diversity Plus: CASM3C Assay for Low-density lipoprotein receptor (LDLR) Biomarker Activity (AID 2283045);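 further: LDLR protein level on the cell surface quantified by ELISA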
# Condition set: primary human coronary artery smooth muscle cells; actives raise or lower the signal
Active and inactive are the calls of the source. Rule for the calls: active = hit-call score of the fitted dose curve at least 0.9, where 1 is the maximum; inactive = score below 0.9.
Outcomes you can answer with include only these: active, inactive

Entry CNS(=O)(=O)c1cc(C(=O)N2CCC(CCN3C4CCC3CC(n3c(C)nc5ccccc53)C4)(c3cccc(F)c3)CC2)c(Cl)cc1F (stereo not drawn) : call = ?
active

Fill in: this test's call for `Cc1ccc(C)c(O)c1` is ___
inactive

Dear colleague, could you share the recorded outcome for `On1ccccc1=S` when you have a moment?
active

----------
# Read-out: Interleukin 6 Receptor (IL6R), IL6R (gene 3570)
# Assay procedure: LTEA_HepaRG_IL6R: Life Technologies and Expression Analysis (LTEA) Assay for Interleukin 6 Receptor (IL6R) using HepaRG (AID 2283510)
# Condition set: mRNA level, 48 h; actives raise or lower the signal
# Procedure: LTEA_HepaRG is a cell based, multiplexed-readout assay that uses HepaRG, a human liver cell line, with measurements taken at 48 hours after chemical dosing on a 96-well plate.LTEA_HepaRG_IL6R is one of 102 assay component(s) measured in the LTEA HepaRG cell culture assay. It is a marker of Inflammation.Data from the assay component LTEA_HepaRG_IL6R was analyzed into 1 endpoint. […]
Active and inactive are the calls of the source. Rule for the calls: active = hit-call score of the fitted dose curve at least 0.9, where 1 is the maximum; inactive = score below 0.9.
Your answer must be one of the following: label 1 (active), label 0 (inactive)

Record request — test call for CC/C(=C\C(=N/O)C(N)=O)C(C)[N+](=O)[O-] (stereo unspecified)
label 0

Assay outcome for CC(C)CC(C)(O)C#CC(C)(O)CC(C)C (stereo unspecified) : what was it?
label 0

Assay result, entry `COC(=O)c1c(Cl)c(Cl)c(C(=O)OC)c(Cl)c1Cl` — outcome?
label 0

Record request — test call for `CC(C)CCO`
label 0

For CCCCC(CC)COC(=O)CCCCCCCCC(=O)OCC(CC)CCCC (stereo unspecified) , which call appears in the assay record?
label 0

Lab log entry: `COCCOc1cc2cc(C(=O)NC3CCN(C(C)C)CC3)n(CC(=O)Nc3ccc(Cl)cn3)c2cn1` — outcome as called in the assay?
label 1

Please let me know the test result on file for O=C1CCC(N2C(=O)c3ccccc3C2=O)C(=O)N1 (stereo unspecified) .
label 0

Recorded test call requested for `CCn1nc(Cc2ccccc2)cc1C1CCN(C[C@H]2C[C@H](N(C)[C@@H](C(=O)O)C(C)C)C[C@@H]2c2cccc(F)c2)CC1`
label 0

Could you please tell me the result logged for `CC(C)c1cccc(C(C)C)c1N1C(=O)c2ccc(O)cc2C1=O` in this assay?
label 0

Hi team, can someone confirm the assay call for `O=C(O)CCN(C1(C(=O)NO)CCCC1)S(=O)(=O)c1ccc(Oc2ccc(F)cc2)cc1` ?
label 0

So what was the verdict on `O=C(O)c1cccc(Oc2ccccc2)c1` in this test?
label 0

// data source = PubChem BioAssay (EPA / NIEHS)
